Entry source: patent US9440941B2

Biological target: human NCX1 (Homo sapiens, UniProt P32418)
Construct: expressed in transfected cells
Experiment: Inhibition of Ca2+ influx into cells (NCX1 reverse mode), FLIPR Fluo-4 assay
Format: cell-based
Conditions: inhibition of NCX1 in reverse mode (Ca2+ influx into cells); read-out: NCX1rv IC50
Counter-ions that a name gives are not always drawn.
IC50 under 700 nM gets label 1, anything at or over 700 nM gets label 0.

See these solved cases before continuing.
{"columns": ["compound", "group label"],
 "data": [
  ["c1ccc(C2CCc3cc(OC4CCC(NCCCOC5CCCC5)CC4)ccc3O2)cc1 (stereo not drawn)", "label 0"],
  ["N[C@H]1CC[C@H](Oc2ccc3c(c2)CCC(c2ccccc2)O3)CC1 (stereo partly drawn)", "label 1"]
]}

Query: Hello, is IC50 of the following compound strictly smaller than 700 nM? Cc1nn(C)c(C)c1CNC1CCC(Oc2ccc3c(c2)CCC(c2ccccc2)O3)CC1 (stereo not drawn)
Result: label 0

Query: Hello, is IC50 of the following compound strictly smaller than 700 nM? CC(C)(C)OCCCNC1CCC(Oc2ccc3c(c2)CCC(c2ccccc2)O3)CC1 (stereo not drawn)
Result: label 0

Query: Hello, is IC50 of the following compound strictly smaller than 700 nM? N[C@H]1CC[C@H](Oc2ccc3c(c2)CC[C@H](c2ccccc2)O3)CC1 [compound 9, hydrochloride]
Result: label 1

Query: Hello, is IC50 of the following compound strictly smaller than 700 nM? NCC(=O)NC1CCC(Oc2ccc3c(c2)CCC(c2ccccc2)O3)CC1 (stereo not drawn) [compound 12, hydrochloride]
Result: label 1

Query: Hello, is IC50 of the following compound strictly smaller than 700 nM? Cc1noc(C)c1C(=O)N[C@H]1CC[C@H](Oc2ccc3c(c2)CCC(c2ccccc2F)O3)CC1 (relative stereo)
Result: label 1

Query: Hello, is IC50 of the following compound strictly smaller than 700 nM? Cc1nn(C)c(C)c1CN[C@H]1CC[C@H](Oc2ccc3c(c2)CCC(c2ccccc2)O3)CC1 (relative stereo)
Result: label 1

Query: Hello, is IC50 of the following compound strictly smaller than 700 nM? `Cc1ccccc1[C@H]1CCc2cc(O[C@H]3CC[C@H](C(=O)NCCO)CC3)ccc2O1`
Result: label 1

Query: Hello, is IC50 of the following compound strictly smaller than 700 nM? CC(C)SCCNC1CCC(Oc2ccc3c(c2)CCC(c2ccccc2)O3)CC1 (stereo not drawn)
Result: label 0

Query: Hello, is IC50 of the following compound strictly smaller than 700 nM? NC1(Cc2ccccc2)CCC(Oc2ccc3c(c2)CCC(c2ccccc2)O3)CC1 (single isomer, unassigned) [compound 46]
Result: label 0

Query: Hello, is IC50 of the following compound strictly smaller than 700 nM? Cc1nc(C(=O)N[C@H]2CC[C@H](Oc3ccc4c(c3)CCC(c3ccccc3)O4)CC2)cs1 (relative stereo)
Result: label 1

Query: Hello, is IC50 of the following compound strictly smaller than 700 nM? Cc1ccn(CC(=O)N[C@H]2CC[C@H](Oc3ccc4c(c3)CCC(c3ccccc3F)O4)CC2)n1 (relative stereo)
Result: label 0
